# target: Aldo-keto reductase family 1 member B1 (Homo sapiens, UniProt P15121)
# testSummary: Inhibition of human AR by fluorescence assay
measurementKind: IC50
Express your answer as a number followed by its unit.

Field request: IC50 | item: "Cc1cccc(Nc2ccccc2C(=O)O)c1C" 77 µM

###

# target: Aldo-keto reductase family 1 member B1 (Homo sapiens)
# testSummary: Inhibition of human AR
measurementKind: IC50
Answer with the number, then the unit.

What value of IC50 has been recorded for this entry: CC(=O)Oc1ccccc1C(=O)Nc1ncc([N+](=O)[O-])s1 [NITAZOXANIDE] 8.22 µM

###

# target: Aldo-keto reductase family 1 member B10 (Homo sapiens, UniProt O60218)
# Sequence (O60218 whole entry): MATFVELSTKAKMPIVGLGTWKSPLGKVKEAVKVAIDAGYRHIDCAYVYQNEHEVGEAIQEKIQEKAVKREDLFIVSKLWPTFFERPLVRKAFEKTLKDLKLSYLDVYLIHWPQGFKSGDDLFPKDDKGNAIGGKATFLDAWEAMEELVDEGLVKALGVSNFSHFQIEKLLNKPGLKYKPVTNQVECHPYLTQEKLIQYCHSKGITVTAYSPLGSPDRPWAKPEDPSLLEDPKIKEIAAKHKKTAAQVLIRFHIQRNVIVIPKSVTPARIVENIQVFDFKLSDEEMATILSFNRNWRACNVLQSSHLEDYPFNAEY
measurementKind: IC50 (µM)
Answer in µM, number only, no unit symbol.

API: value(readout=IC50, system=Aldo-keto reductase family 1 member B10 (Homo sapiens, UniProt O60218)) for record O=C(O)c1ccccc1Nc1cccc(C(F)(F)F)c1 [FLUFENAMIC ACID] 0.76
